Consider the following compounds and their measured IC50 readings.
- TARGET ENTITY: SOS1/KRAS G12C protein binding (Homo sapiens, UniProt Q07889)
- Construct: His-SOS1 (aa 564-1049) protein; 20200707 (KRAS G12C)
- ASSAY: Inhibition of SOS1/KRAS G12C protein binding (665 nm/615 nm ratio)
- EXPERIMENTAL CONTEXT: 15 nM KRAS G12C (aa 1-169), 2.5 nM His-SOS1 (aa 564-1049); nonlinear regression

{"columns": ["COMPOUND", "TARGET ENTITY", "IC50, nM"],
 "data": [
  ["COCC1(n2cc3c(N[C@H](C)c4cccc(C(F)F)c4F)nc(C)nc3c(OC)c2=O)CC1 [SZ-022346]", "SOS1/KRAS G12C protein binding (Homo sapiens, UniProt Q07889)", 30],
  ["COc1c(=O)n(C2(CF)CC2)cc2c(N[C@H](C)c3cccc(C(C)(F)F)c3F)nc(C)nc12 [SZ-022357]", "SOS1/KRAS G12C protein binding (Homo sapiens, UniProt Q07889)", 3.68],
  ["CCOc1c(=O)n(C2(CF)CC2)cc2c(N[C@H](C)c3cccc(C(C)(F)F)c3F)nc(C)nc12 [SZ-022361]", "SOS1/KRAS G12C protein binding (Homo sapiens, UniProt Q07889)", 4.62],
  ["COc1c(=O)n(C2(C(F)(F)F)CC2)cc2c(N[C@H](C)c3cccc(C(F)F)c3F)nc(C)nc12 [SZ-022325]", "SOS1/KRAS G12C protein binding (Homo sapiens, UniProt Q07889)", 15.9]
]}

====

Consider the following compounds and their measured pIC50 readings.
- TARGET ENTITY: SOS1/KRAS G12C protein binding (Homo sapiens)
- Construct: His-SOS1 (aa 564-1049) protein; purchased Pharmaron Beijing Co., Ltd. 20200717 (His-SOS1); 20200707 (KRAS G12C)
- ASSAY: Inhibition of SOS1/KRAS G12C protein binding (665 nm/615 nm ratio)
- EXPERIMENTAL CONTEXT: 15 nM KRAS G12C (aa 1-169), 2.5 nM His-SOS1 (aa 564-1049); nonlinear regression
pIC50: −log10 of the molar value.

{"columns": ["COMPOUND", "pIC50"],
 "data": [
  ["CCOc1c(=O)n(C2(CF)CC2)cc2c(N[C@H](C)c3cccc(C(F)(F)F)c3C)nc(C)nc12 [SZ-022342]", 8.15],
  ["COc1c(=O)n(C2(C(F)F)CC2)cc2c(N[C@H](C)c3cccc(C(F)(F)C(C)(C)O)c3F)nc(C)nc12 [SZ-022317]", 8.34],
  ["Cc1nc(N[C@H](C)c2cccc(C(F)F)c2F)c2cn(C3(C(F)F)CC3)c(=O)c(O[C@H]3CCOC3)c2n1 [SZ-022351]", 7.67],
  ["[2H]C([2H])([2H])Oc1c(=O)n(C2(C(F)F)CC2)cc2c(N[C@H](C)c3cccc(C(C)(F)F)c3F)nc(C)nc12 [SZ-022355]", 8.61],
  ["COc1c(=O)n(C2(C(F)F)CC2)cc2c(N[C@H](C)c3cccc(C(F)(F)F)c3C)nc(C)nc12 [SZ-022304]", 8.16],
  ["COc1c(=O)n(C2CCOCC2)cc2c(N[C@H](C)c3cccc(C(F)F)c3F)nc(C)nc12 [SZ-022326]", 7.98],
  ["COc1c(=O)n(C2(C(F)F)CC2)cc2c(N[C@H](C)c3cc(N)cc(C(F)(F)F)c3)nc(C)nc12 [SZ-022327]", 8.30]
]}

====

- System: ERK phosphorylation in DLD-1 cells
- ASSAY: In-cell Western blot assay for ERK phosphorylation in DLD-1 cells
- Type: cell-based
- EXPERIMENTAL CONTEXT: Homo sapiens, p-ERK signal corrected using DMSO and BI-3406, four-parameter fit
pIC50: −log10 of the molar value.
Consider the following compounds and their measured pIC50 readings.

{"columns": ["RECORD SMILES", "pIC50"],
 "data": [
  ["[2H]C([2H])([2H])Oc1c(=O)n(C2(C(F)(F)F)CC2)cc2c(N[C@H](C)c3cccc(C#N)c3C)nc(C)nc12", 6.05],
  ["COc1c(=O)n(C2(C)CC2)cc2c(N[C@H](C)c3cccc(C(C)(F)F)c3F)nc(C)nc12", 6.66],
  ["CCOc1c(=O)n(C2(C(F)F)CC2)cc2c(N[C@H](C)c3cccc(C(F)F)c3F)nc(C)nc12", 6.84],
  ["Cc1nc(N[C@H](C)c2cccc(C(F)(F)F)c2C)c2cn(C3(C)CC3)c(=O)c(S(C)(=O)=O)c2n1", 6.56],
  ["COc1c(=O)n(C2(C(F)F)CC2)cc2c(N[C@H](C)c3cccc(C(F)(F)CO)c3F)nc(C)nc12", 6.38],
  ["COc1c(=O)n(C2(C(F)F)CC2)cc2c(N[C@H](C)c3cccc(C(F)(F)F)c3)nc(C)nc12", 6.21],
  ["CCOc1c(=O)n(C2(C(F)(F)F)CC2)cc2c(N[C@H](C)c3cccc(C(F)F)c3F)nc(C)nc12", 7.11],
  ["Cc1nc(N[C@H](C)c2cccc(C(F)F)c2F)c2cn(C3(C(F)F)CC3)c(=O)c(OCCO)c2n1", 6.29],
  ["CCOc1c(=O)n(C2(C(F)F)CC2)cc2c(N[C@H](C)c3cccc(C(C)(F)F)c3F)nc(C)nc12", 6.48],
  ["[2H]C([2H])([2H])Oc1c(=O)n(C2(C(F)F)CC2)cc2c(N[C@H](C)c3cccc(C#N)c3C)nc(C)nc12", 6.14],
  ["COc1c(=O)n(C2(C(F)F)CC2)cc2c(N[C@H](C)c3cccc(C(F)(F)F)c3C)nc(C)nc12", 7.10],
  ["CCOc1c(=O)n(C2(C(F)(F)F)CC2)cc2c(N[C@H](C)c3cccc(C(C)(F)F)c3F)nc(C)nc12", 6.66],
  ["Cc1nc(N[C@H](C)c2cccc(C(F)F)c2F)c2cn(C3(C(F)F)CC3)c(=O)c(OCC(F)(F)F)c2n1", 6.22],
  ["CCOc1c(=O)n(C2(C(F)F)CC2)cc2c(N[C@H](C)c3cccc(C(F)F)c3C)nc(C)nc12", 6.76],
  ["CCOc1c(=O)n(C2(C(F)F)CC2)cc2c(N[C@H](C)c3cccc(C(F)(F)F)c3C)nc(C)nc12", 6.73],
  ["CCOc1c(=O)n(C2(CF)CC2)cc2c(N[C@H](C)c3cccc(C(C)(F)F)c3F)nc(C)nc12", 6.79],
  ["COCC1(n2cc3c(N[C@H](C)c4cccc(C(F)F)c4F)nc(C)nc3c(OC)c2=O)CC1", 5.99]
]}

====

- TARGET ENTITY: SOS1/KRAS G12C protein binding (Homo sapiens, UniProt Q07889)
- Construct: His-SOS1 (aa 564-1049) protein; 20200707 (KRAS G12C)
- Sequence (Q07889 564-1049): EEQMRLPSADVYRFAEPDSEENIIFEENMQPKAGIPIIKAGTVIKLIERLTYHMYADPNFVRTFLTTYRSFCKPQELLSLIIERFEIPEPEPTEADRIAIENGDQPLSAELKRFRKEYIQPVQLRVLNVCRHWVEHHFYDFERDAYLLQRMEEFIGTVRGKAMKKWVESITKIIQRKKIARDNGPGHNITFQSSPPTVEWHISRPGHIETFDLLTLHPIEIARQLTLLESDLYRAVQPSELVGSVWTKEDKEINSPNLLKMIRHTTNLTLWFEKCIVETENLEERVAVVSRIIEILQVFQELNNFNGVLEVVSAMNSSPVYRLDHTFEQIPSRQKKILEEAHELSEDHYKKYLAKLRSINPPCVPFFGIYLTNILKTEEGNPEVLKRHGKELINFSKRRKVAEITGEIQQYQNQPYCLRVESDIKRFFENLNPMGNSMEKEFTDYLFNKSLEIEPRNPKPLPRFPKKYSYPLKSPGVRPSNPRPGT
- ASSAY: Inhibition of SOS1/KRAS G12C protein binding (665 nm/615 nm ratio)
- EXPERIMENTAL CONTEXT: 15 nM KRAS G12C (aa 1-169), 2.5 nM His-SOS1 (aa 564-1049); nonlinear regression
pIC50: −log10 of the molar value.

{"columns": ["RECORD SMILES", "pIC50"],
 "data": [
  ["COc1c(=O)n(C23CC(C2)C3)cc2c(N[C@H](C)c3cccc(C(F)F)c3F)nc(C)nc12", 7.66],
  ["COc1c(=O)n(C2(C(F)F)CC2)cc2c(N[C@H](C)c3cccc4c3OCC4(F)F)nc(C)nc12", 8.30],
  ["CCOc1c(=O)n(C2(C(F)F)CC2)cc2c(N[C@H](C)c3cccc(C(F)(F)F)c3C)nc(C)nc12", 8.14],
  ["Cc1nc(N[C@H](C)c2cccc(C(F)F)c2F)c2cn(C3(C(F)F)CC3)c(=O)c(OCC(F)F)c2n1", 7.63],
  ["COc1c(=O)n(C2(CF)CC2)cc2c(N[C@H](C)c3cccc(C(F)F)c3F)nc(C)nc12", 8.19],
  ["CCOc1c(=O)n(C2(C(F)F)CC2)cc2c(N[C@H](C)c3cccc(C(F)F)c3F)nc(C)nc12", 8.03],
  ["CCOc1c(=O)n(C2(C)CC2)cc2c(N[C@H](C)c3cccc(C(F)F)c3F)nc(C)nc12", 7.65],
  ["[2H]C([2H])([2H])Oc1c(=O)n(C2(C(F)F)CC2)cc2c(N[C@H](C)c3cccc(C(F)F)c3F)nc(C)nc12", 8.09],
  ["CCOc1c(=O)n(C2(CF)CC2)cc2c(N[C@H](C)c3cccc(C(F)F)c3F)nc(C)nc12", 8.13]
]}

These data points were gathered from patent US20240327401A1.
